Data credit: ChEMBL document CHEMBL4411307

So I've got a bunch of compounds here, and I need their selectivity ratio values.
protocol: Selectivity index, ratio of compound concentration showing <20 to <25% hemolysis in mouse RBC to MIC for fluconazole/ITC-susceptible Candida albicans ATCC MYA-2310
Type: toxicity
condition: red blood cells (erythrocytes), read-out: Selectivity Index

{"columns": ["smiles text", "result"],
 "data": [
  ["C(=N\\Nc1ccccc1)/c1ccc(-c2cccc(/C=N/Nc3ccccc3)c2)cc1", "1 to 32"]
]}

The record that follows has no selectivity ratio shown yet.
Prompt: Would you mind telling me what selectivity ratio value was observed for C(=N\Nc1ccccc1)/c1ccc(-c2ccc(/C=N/Nc3ccccc3)cc2)cc1 ?
Response: 1 to 32

---

protocol: Hemolytic activity in mouse RBC at 1.95 ug/ml after 1 hr relative to control
Assay type: ADME, cell-based, Erythrocyte
condition: red blood cells (erythrocytes), read-out: Activity
Classify by measured hemolysis at 1 h, 1.95 ug/ml: 1 if it is equal to or exceeds 1%, 0 if it is smaller.

// known answers, use as guide
{"columns": ["smiles text", "label class"],
 "data": [
  ["C/C(=N\\Nc1ccc(F)cc1)c1ccc(-c2ccc(/C(C)=N/Nc3ccc(F)cc3)cc2)cc1", 1],
  ["Fc1cccc(N/N=C/c2ccc(-c3cccc(/C=N/Nc4cccc(F)c4)c3)cc2)c1", 0],
  ["C[C@@H](c1ncncc1F)[C@](O)(Cn1cncn1)c1ccc(F)cc1F", 1],
  ["COc1ccc(N/N=C/c2ccc(-c3ccc(/C=N/Nc4ccc(OC)cc4)cc3)cc2)cc1", 1],
  ["Fc1ccc(N/N=C/c2ccc(-c3cccc(/C=N/Nc4ccc(F)cc4F)c3)cc2)c(F)c1", 1]
]}

Prompt: hey, is hemolysis at 1 h, 1.95 ug/ml for this one >= 1%? COc1ccc(N/N=C/c2ccc(-c3cccc(/C=N/Nc4ccc(OC)cc4)c3)cc2)cc1
Response: 1

Prompt: hey, is hemolysis at 1 h, 1.95 ug/ml for this one >= 1%? Fc1ccc(N/N=C/c2ccc(-c3cccc(/C=N/Nc4ccc(F)cc4)c3)cc2)cc1
Response: 1

Prompt: hey, is hemolysis at 1 h, 1.95 ug/ml for this one >= 1%? C(=N\Nc1ccccc1)/c1ccc(-c2ccc(/C=N/Nc3ccccc3)cc2)cc1
Response: 1

Prompt: hey, is hemolysis at 1 h, 1.95 ug/ml for this one >= 1%? N=C(N)N/N=C/c1ccc(-c2cccc(/C=N/NC(=N)N)c2)cc1
Response: 1

Prompt: hey, is hemolysis at 1 h, 1.95 ug/ml for this one >= 1%? C(=N\Nc1ccccc1)/c1ccc(-c2cccc(/C=N/Nc3ccccc3)c2)cc1
Response: 1

Prompt: hey, is hemolysis at 1 h, 1.95 ug/ml for this one >= 1%? Fc1cccc(N/N=C/c2ccc(-c3ccc(/C=N/Nc4cccc(F)c4)cc3)cc2)c1
Response: 0

Prompt: hey, is hemolysis at 1 h, 1.95 ug/ml for this one >= 1%? Fc1ccc(N/N=C/c2ccc(-c3ccc(/C=N/Nc4ccc(F)cc4)cc3)cc2)cc1
Response: 1

---

protocol: Selectivity index, ratio of CC50 for human A549 cells to MIC for Aspergillus terreus ATCC MYA-3633
Format: toxicity
condition: read-out: Selectivity Index
Classify by measured selectivity ratio: true if it is equal to or exceeds 0.6, false if it is smaller.

// known answers, use as guide
{"columns": ["smiles text", "label class"],
 "data": [
  ["Fc1ccc(N/N=C/c2ccc(-c3cccc(/C=N/Nc4ccc(F)cc4F)c3)cc2)c(F)c1", "false"],
  ["Fc1cccc(N/N=C/c2ccc(-c3cccc(/C=N/Nc4cccc(F)c4)c3)cc2)c1", "false"],
  ["Fc1ccc(N/N=C/c2ccc(-c3cccc(/C=N/Nc4ccc(F)cc4)c3)cc2)cc1", "true"],
  ["C/C(=N\\Nc1ccc(F)cc1)c1ccc(-c2ccc(/C(C)=N/Nc3ccc(F)cc3)cc2)cc1", "false"],
  ["Fc1cccc(N/N=C/c2ccc(-c3ccc(/C=N/Nc4cccc(F)c4)cc3)cc2)c1", "true"]
]}

Could you now consider this next compound?
Prompt: hey, is selectivity ratio for this one >= 0.6? COc1ccc(N/N=C/c2ccc(-c3ccc(/C=N/Nc4ccc(OC)cc4)cc3)cc2)cc1
Response: true

---

So I've got a bunch of compounds here, and I need their hemolysis at 1 h, 0.975 ug/ml values.
protocol: Hemolytic activity in mouse RBC at […] ug/ml after 1 hr relative to control
Format: ADME, cell-based, Erythrocyte
condition: red blood cells (erythrocytes), read-out: Activity
Numbers only, in %.

Reference set (4 entries):
{"columns": ["smiles text", "hemolysis at 1 h, 0.975 ug/ml / %"],
 "data": [
  ["C(=N\\Nc1ccccc1)/c1ccc(-c2cccc(/C=N/Nc3ccccc3)c2)cc1", 0],
  ["Fc1cccc(N/N=C/c2ccc(-c3cccc(/C=N/Nc4cccc(F)c4)c3)cc2)c1", 4.6],
  ["N=C(N)N/N=C/c1ccc(-c2cccc(/C=N/NC(=N)N)c2)cc1", 0],
  ["C(=N\\Nc1ccccc1)/c1ccc(-c2ccc(/C=N/Nc3ccccc3)cc2)cc1", 0.1]
]}

Prompt: Would you mind telling me what hemolysis at 1 h, 0.975 ug/ml value was observed for Fc1cccc(N/N=C/c2ccc(-c3ccc(/C=N/Nc4cccc(F)c4)cc3)cc2)c1 ?
Response: 0.8

---

protocol: Hemolytic activity in mouse RBC at 31.3 ug/ml after 1 hr relative to control
Assay type: ADME, cell-based, Erythrocyte
condition: red blood cells (erythrocytes), read-out: Activity
# note: exactly 10% is not below, so it is Not met; use Met for hemolysis at 1 h, 31.3 ug/ml strictly under it

// known answers, use as guide
{"columns": ["compound", "label class"],
 "data": [
  ["C/C(=N\\Nc1ccc(F)cc1)c1ccc(-c2ccc(/C(C)=N/Nc3ccc(F)cc3)cc2)cc1", "Met"],
  ["COc1ccc(N/N=C/c2ccc(-c3ccc(/C=N/Nc4ccc(OC)cc4)cc3)cc2)cc1", "Not met"],
  ["Fc1ccc(N/N=C/c2ccc(-c3cccc(/C=N/Nc4ccc(F)cc4)c3)cc2)cc1", "Not met"],
  ["C(=N\\Nc1ccccc1)/c1ccc(-c2cccc(/C=N/Nc3ccccc3)c2)cc1", "Not met"],
  ["COc1ccc(N/N=C/c2ccc(-c3cccc(/C=N/Nc4ccc(OC)cc4)c3)cc2)cc1", "Met"],
  ["Fc1cccc(N/N=C/c2ccc(-c3cccc(/C=N/Nc4cccc(F)c4)c3)cc2)c1", "Not met"]
]}

Could you now consider this next compound?
Prompt: Record C(=N\Nc1ccccc1)/c1ccc(-c2ccc(/C=N/Nc3ccccc3)cc2)cc1 : is its hemolysis at 1 h, 31.3 ug/ml strictly below 10%?
Response: Not met

---

So I've got a bunch of compounds here, and I need their CC50 values.
Tested on: A549
protocol: Cytotoxicity against human A549 cells after 24 hrs by resazurin based assay
Format: cell-based
condition: a549, 24 h
Answers are plain numbers, in µg/mL.

Reference set (2 entries):
{"columns": ["smiles text", "CC50 [µg/mL]"],
 "data": [
  ["C/C(=N\\Nc1ccc(F)cc1)c1ccc(-c2ccc(/C(C)=N/Nc3ccc(F)cc3)cc2)cc1", 16.6],
  ["Fc1ccc(N/N=C/c2ccc(-c3cccc(/C=N/Nc4ccc(F)cc4F)c3)cc2)c(F)c1", 16.4]
]}

The record that follows has no CC50 shown yet.
Prompt: Would you mind telling me what CC50 value was observed for C(=N\Nc1ccccc1)/c1ccc(-c2ccc(/C=N/Nc3ccccc3)cc2)cc1 ?
Response: 17.7

---

protocol: Hemolytic activity in mouse RBC at 62.5 ug/ml after 1 hr relative to control
Assay type: ADME, cell-based, Erythrocyte
condition: red blood cells (erythrocytes), read-out: Activity
reported endpoint: hemolysis at 1 h, 62.5 ug/ml (%)
Numbers only, in %.

Reference set (3 entries):
{"columns": ["smiles text", "hemolysis at 1 h, 62.5 ug/ml, %"],
 "data": [
  ["Fc1ccc(N/N=C/c2ccc(-c3ccc(/C=N/Nc4ccc(F)cc4)cc3)cc2)cc1", 28.3],
  ["Fc1cccc(N/N=C/c2ccc(-c3ccc(/C=N/Nc4cccc(F)c4)cc3)cc2)c1", 13.6],
  ["C(=N\\Nc1ccccc1)/c1ccc(-c2cccc(/C=N/Nc3ccccc3)c2)cc1", 23.6]
]}

State the recorded hemolysis at 1 h, 62.5 ug/ml for every item in the following list.
1. C(=N\Nc1ccccc1)/c1ccc(-c2ccc(/C=N/Nc3ccccc3)cc2)cc1
2. COc1ccc(N/N=C/c2ccc(-c3cccc(/C=N/Nc4ccc(OC)cc4)c3)cc2)cc1
3. Fc1ccc(N/N=C/c2ccc(-c3cccc(/C=N/Nc4ccc(F)cc4)c3)cc2)cc1

Response:
1: 17.2; 2: 18.8; 3: 26.1

State the recorded hemolysis at 1 h, 62.5 ug/ml for every item in the following list.
1. COc1ccc(N/N=C/c2ccc(-c3ccc(/C=N/Nc4ccc(OC)cc4)cc3)cc2)cc1
2. N=C(N)N/N=C/c1ccc(-c2cccc(/C=N/NC(=N)N)c2)cc1

Response:
1: 22.7; 2: 13.1

State the recorded hemolysis at 1 h, 62.5 ug/ml for every item in the following list.
1. C/C(=N\Nc1ccc(F)cc1)c1ccc(-c2ccc(/C(C)=N/Nc3ccc(F)cc3)cc2)cc1
2. Fc1ccc(N/N=C/c2ccc(-c3cccc(/C=N/Nc4ccc(F)cc4F)c3)cc2)c(F)c1
3. Fc1cccc(N/N=C/c2ccc(-c3cccc(/C=N/Nc4cccc(F)c4)c3)cc2)c1

Response:
1. 26.2
2. 23.5
3. 39.5
